Origin of values: paper PMC3660597

Substrate: NCc1c[nH]c2nc(N)[nH]c(=O)c12
Experiment: [3H]-preQ1 incorporation into tRNA(Tyr), scintillation counting
Assay type: biochemical, Zymomonas mobilis
Conditions: 15 µM E. coli tRNA(Tyr), 200 mM HEPES pH 7.3, 20 mM MgCl2, 37°C, labelled compound

- protein: "Z. mobilis Tgt (\"wild type\" Tgt = Tgt(Tyr106Phe)) (Zymomonas mobilis subsp. mobilis ZM4 = ATCC 31821; C158V/V233G/Y106F) (protein, recombinant from pET9d-ZM-Y106F in E. coli BL21(DE3)/pLysS, purified; homodimer; all variants including \"wild type\" carry Tyr106Phe) VEATAQETDRPRFSFSIAAREGKARTGTIEMKRGVIRTPAFMPVGTAATVKALKPETVRATGADIILGNTYHLMLRPGAERIAKLGGLHSFMGWDRPILTDSGGFQVMSLSSLTKQSEEGVTFKSHLDGSRHMLSPERSIEIQHLLGSDIVMAFDEVTPYPATPSRAASSMERSMRWAKRSRDAFDSRKEQAENAALFGIQQGSVFENLRQQSADALAEIGFDGYAVGGLAGGEGQDEMFRVLDFSVPMLPDDKPHYLMGVGKPDDIVGAVERGIDMFDCVLPTRSGRNGQAFTWDGPINIRNARFSEDLTPLDSECHCAVCQKWSRAYIHHLIRAGEILGAMLMTEHNIAFYQQLMQKIRDSISEGRFSQFAQDFRARYFARNS"
  Km: "13.5 ± 3.1 µM"
